# Experimental system: Cyclin-C/Cyclin-dependent kinase 19 (Homo sapiens, UniProt Q9BWU1)
# Sequence (Q9BWU1 whole entry, the tested form may be a part): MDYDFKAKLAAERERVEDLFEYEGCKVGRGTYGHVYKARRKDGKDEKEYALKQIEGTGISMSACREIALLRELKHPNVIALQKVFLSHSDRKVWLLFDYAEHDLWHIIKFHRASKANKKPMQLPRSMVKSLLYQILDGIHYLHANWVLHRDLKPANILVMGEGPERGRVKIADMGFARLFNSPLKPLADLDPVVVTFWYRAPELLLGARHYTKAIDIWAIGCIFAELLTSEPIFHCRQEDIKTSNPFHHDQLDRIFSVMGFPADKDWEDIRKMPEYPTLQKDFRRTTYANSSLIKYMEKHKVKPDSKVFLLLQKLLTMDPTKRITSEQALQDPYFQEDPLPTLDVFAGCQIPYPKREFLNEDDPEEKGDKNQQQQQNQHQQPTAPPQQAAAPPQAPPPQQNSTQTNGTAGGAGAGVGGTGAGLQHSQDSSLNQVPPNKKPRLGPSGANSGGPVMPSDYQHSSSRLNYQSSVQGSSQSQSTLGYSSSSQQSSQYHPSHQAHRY
# Sequence (P24863 whole entry, further chain, the tested form may be a part): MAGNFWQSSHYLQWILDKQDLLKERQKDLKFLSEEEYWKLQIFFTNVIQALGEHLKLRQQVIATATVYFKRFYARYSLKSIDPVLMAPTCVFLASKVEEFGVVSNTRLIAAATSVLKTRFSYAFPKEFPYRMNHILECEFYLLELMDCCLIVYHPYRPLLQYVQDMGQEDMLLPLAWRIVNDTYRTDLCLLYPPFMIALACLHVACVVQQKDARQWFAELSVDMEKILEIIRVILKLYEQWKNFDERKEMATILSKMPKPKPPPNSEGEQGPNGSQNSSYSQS
# Protocol details: Inhibition of recombinant human GST/His-tagged CDK11 (1 to 502 residues)/cyclinC (1 to 283 residues) catalytic domain expressed in insect cells by Lantha screen eu binding assay
Property measured: IC50

{"columns": ["Compound", "Reading"],
 "data": [
  ["CC1CCc2nc(N)c(C#N)c(-c3cccnc3)c2C1 (stereo unspecified)", "> 30 µM"]
]}

###

# Experimental system: Rho-associated protein kinase 1 (Homo sapiens)
# Sequence (Q13464 whole entry): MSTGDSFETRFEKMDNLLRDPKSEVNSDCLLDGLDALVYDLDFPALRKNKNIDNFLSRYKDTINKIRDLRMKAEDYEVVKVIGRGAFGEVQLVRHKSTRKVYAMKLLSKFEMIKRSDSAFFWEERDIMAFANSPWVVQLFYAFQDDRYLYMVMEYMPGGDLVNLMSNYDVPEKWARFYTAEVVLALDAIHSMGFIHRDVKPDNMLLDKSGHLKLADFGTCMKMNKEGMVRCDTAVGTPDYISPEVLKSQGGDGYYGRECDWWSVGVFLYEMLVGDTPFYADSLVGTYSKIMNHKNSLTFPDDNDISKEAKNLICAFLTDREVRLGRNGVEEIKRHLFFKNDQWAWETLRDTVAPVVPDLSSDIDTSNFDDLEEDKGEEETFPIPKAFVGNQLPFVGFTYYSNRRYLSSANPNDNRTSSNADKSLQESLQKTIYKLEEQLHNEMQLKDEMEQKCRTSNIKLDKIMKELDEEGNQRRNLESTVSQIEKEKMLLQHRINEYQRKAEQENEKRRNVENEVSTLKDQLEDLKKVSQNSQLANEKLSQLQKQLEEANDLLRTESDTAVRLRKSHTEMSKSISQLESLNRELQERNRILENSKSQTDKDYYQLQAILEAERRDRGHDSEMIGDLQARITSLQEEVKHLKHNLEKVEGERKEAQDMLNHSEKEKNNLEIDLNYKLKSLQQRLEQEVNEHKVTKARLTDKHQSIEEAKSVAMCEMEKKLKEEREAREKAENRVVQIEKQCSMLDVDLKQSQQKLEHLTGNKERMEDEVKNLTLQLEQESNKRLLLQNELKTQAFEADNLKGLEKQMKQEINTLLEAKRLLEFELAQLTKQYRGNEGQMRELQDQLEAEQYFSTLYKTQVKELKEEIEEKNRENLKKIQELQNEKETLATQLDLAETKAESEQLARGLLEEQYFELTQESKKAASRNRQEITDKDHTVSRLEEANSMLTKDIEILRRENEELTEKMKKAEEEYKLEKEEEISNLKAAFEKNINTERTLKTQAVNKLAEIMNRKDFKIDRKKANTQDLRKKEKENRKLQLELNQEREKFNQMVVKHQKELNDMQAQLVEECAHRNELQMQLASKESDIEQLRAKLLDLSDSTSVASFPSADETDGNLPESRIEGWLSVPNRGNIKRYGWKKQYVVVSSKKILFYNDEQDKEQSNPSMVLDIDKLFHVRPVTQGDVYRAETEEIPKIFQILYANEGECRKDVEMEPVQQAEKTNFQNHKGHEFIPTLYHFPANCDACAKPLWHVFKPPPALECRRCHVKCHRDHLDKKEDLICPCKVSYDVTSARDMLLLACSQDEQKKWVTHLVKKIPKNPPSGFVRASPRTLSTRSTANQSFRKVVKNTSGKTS
pKd: −log10 of the molar value.
Property measured: pKd

{"columns": ["Chemical string", "Reading"],
 "data": [
  ["CN(C)[C@H]1C[C@@]23CC[C@@]4(O2)C(=CC[C@]2(C)[C@@H](c5ccc6ccncc6c5)CC[C@H]24)C=C3[C@@H](O)[C@@H]1O", 6.60]
]}
